test: AUC (0 to 48 hrs) in Wistar rat at 100 mg/kg, po; format: ADME, organism-based; set-up: time < 48 hr, dose 100 mg/kg, route oral; details: plasma
Quantity kind: AUC(0-t) at 48 h (µM·h)

[
  {
    "Compound structure string": "Cc1c(CC(=O)O)c2cccnc2n1Cc1ccc(S(C)(=O)=O)cc1",
    "Readout number": 128
  }
]

----------
Here, each record is paired with measured Ki data.
molecular target: Prostaglandin D2 receptor 2 (Homo sapiens, UniProt Q9Y5Y4); test: Displacement of [3H]-prostaglandin D2 from human CRTh2 receptor expressed in CHO cells after 2 hrs
Sequence (Q9Y5Y4 whole entry): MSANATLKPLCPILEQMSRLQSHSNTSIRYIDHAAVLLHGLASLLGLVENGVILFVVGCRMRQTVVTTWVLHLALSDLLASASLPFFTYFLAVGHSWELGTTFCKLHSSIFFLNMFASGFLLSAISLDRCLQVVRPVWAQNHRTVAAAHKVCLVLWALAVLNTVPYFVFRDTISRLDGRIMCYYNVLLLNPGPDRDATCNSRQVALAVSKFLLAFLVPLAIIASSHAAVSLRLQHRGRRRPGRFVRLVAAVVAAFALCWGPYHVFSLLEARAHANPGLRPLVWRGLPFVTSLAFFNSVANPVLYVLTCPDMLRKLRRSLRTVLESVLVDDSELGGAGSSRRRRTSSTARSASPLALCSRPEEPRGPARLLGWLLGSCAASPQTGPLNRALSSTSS

[
  {
    "Molecule": "Cc1c(CC(=O)O)c2cccnc2n1Cc1ccccc1Cl",
    "Experimental target": "Prostaglandin D2 receptor 2 (Homo sapiens, UniProt Q9Y5Y4)",
    "Ki / nM": 624
  },
  {
    "Molecule": "Cc1c(CC(=O)O)c2cccnc2n1Cc1ccccn1",
    "Experimental target": "Prostaglandin D2 receptor 2 (Homo sapiens, UniProt Q9Y5Y4)",
    "Ki / nM": 2940
  },
  {
    "Molecule": "Cc1c(CC(=O)O)c2cccnc2n1Cc1ccc(S(=O)(=O)C(F)(F)F)cc1",
    "Experimental target": "Prostaglandin D2 receptor 2 (Homo sapiens, UniProt Q9Y5Y4)",
    "Ki / nM": 208
  },
  {
    "Molecule": "Cc1c(CC(=O)O)c2cccnc2n1Cc1ccc(C#N)cc1",
    "Experimental target": "Prostaglandin D2 receptor 2 (Homo sapiens, UniProt Q9Y5Y4)",
    "Ki / nM": 379
  },
  {
    "Molecule": "Cc1c(CC(=O)O)c2cccnc2n1Cc1ccc(Cl)cc1",
    "Experimental target": "Prostaglandin D2 receptor 2 (Homo sapiens, UniProt Q9Y5Y4)",
    "Ki / nM": 149
  },
  {
    "Molecule": "Cc1c(CC(=O)O)c2cccnc2n1Cc1ccc([S+](C)[O-])cc1 (racemic)",
    "Experimental target": "Prostaglandin D2 receptor 2 (Homo sapiens, UniProt Q9Y5Y4)",
    "Ki / nM": 249
  }
]

Reference source for all entries: ChEMBL document CHEMBL2440029
